- Tested on: Aai full-length NAD+-I (nadA) riboswitch, 100-mer (RNA, riboswitch) GGCUGCAACAUCCCCGUGGGUUGGACGGCGAAAGCCGUAGCGAAUCCACUGCAGCCUGUAUGGCUUUCAACAUCCCCGUCCGCGAAAGCGGACUGAAGGC
- assay_name: ITC
- assay_setup: 100 mM NaCl, 20 mM MgCl2; 0.10 M Na-HEPES pH 7.0, 10 °C; 1:1 model; apparent
Lab note: cut-off is 30 µM. Strictly less in KD is satisfied. Exactly 30 µM or more is not satisfied.

Some solved entries appear below for comparison.
{"mol": "NC(=O)c1ccc[n+]([C@@H]2O[C@H](COP(=O)(O)OP(=O)(O)OC[C@H]3O[C@@H](n4cnc5c(N)ncnc54)[C@H](O)[C@@H]3O)[C@@H](O)[C@H]2O)c1", "class_label": "not satisfied"}
{"mol": "Nc1ncnc2c1ncn2[C@@H]1O[C@H](COP(=O)(O)OP(=O)(O)O)[C@@H](O)[C@H]1O", "class_label": "satisfied"}
{"mol": "Nc1ncnc2c1ncn2[C@@H]1O[C@H](COP(=O)(O)OP(=O)(O)OP(=O)(O)O)[C@@H](O)[C@H]1O", "class_label": "satisfied"}

Query compound follows.
Data request: Lab note: confirm whether the reported KD for this compound is below 30 µM, equality not counting. compound: NC(=O)C1=CN([C@@H]2O[C@H](COP(=O)(O)OP(=O)(O)OC[C@H]3O[C@@H](n4cnc5c(N)ncnc54)[C@H](O)[C@@H]3O)[C@@H](O)[C@H]2O)C=CC1
Data returned: not satisfied
